The reader will find reported pKd values listed item by item below.
- TEST_SYSTEM: C9 (human, UniProt P02748)
- Sequence (P02748 22-559): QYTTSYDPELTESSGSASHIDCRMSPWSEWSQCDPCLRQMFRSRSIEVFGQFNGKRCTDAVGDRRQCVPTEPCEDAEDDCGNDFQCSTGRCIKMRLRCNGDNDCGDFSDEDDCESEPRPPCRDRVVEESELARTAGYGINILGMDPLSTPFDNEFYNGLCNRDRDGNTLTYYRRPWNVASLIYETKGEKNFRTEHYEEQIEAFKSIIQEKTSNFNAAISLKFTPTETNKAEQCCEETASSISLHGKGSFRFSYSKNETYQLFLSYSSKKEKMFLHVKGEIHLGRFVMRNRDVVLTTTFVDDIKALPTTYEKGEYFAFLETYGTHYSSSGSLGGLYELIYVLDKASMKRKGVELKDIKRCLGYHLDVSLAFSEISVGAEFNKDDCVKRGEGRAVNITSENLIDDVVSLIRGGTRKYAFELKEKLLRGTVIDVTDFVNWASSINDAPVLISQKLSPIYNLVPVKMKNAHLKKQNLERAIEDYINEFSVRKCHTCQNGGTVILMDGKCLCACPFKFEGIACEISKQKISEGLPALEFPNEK
- ASSAY_OVERVIEW: other (MSD ECL)
pKd (log units): -log10 of the concentration in mol/L.

Known results for binders:
# BINDER, pKd
records = [
    ("Vector KRG vsCD59 N18Q-6xHis (protein) MGIQGGSVLFGLLLVLAVFCHSGHSLQCYNCPNPTADCKTAVQCSSDFDACLITKAGLQVYNKCWKFEHCNFNDVTTRLRENELTYYCCKKDLCNFNEQLENHHHHHH", 7.80),
    ("Vector MTE sCD59 S20G,T51G-6xHis (protein) MGIQGGSVLFGLLLVLAVFCHSGHSLQCYNCPNPTADCKTAVNCGSDFDACLITKAGLQVYNKCWKFEHCNFNDVGTRLRENELTYYCCKKDLCNFNEQLENHHHHHH", 7.54),
    ("Vector KRM vsCD59 K38R-6xHis (protein) MGIQGGSVLFGLLLVLAVFCHSGHSLQCYNCPNPTADCKTAVNCSSDFDACLITKAGLQVYNRCWKFEHCNFNDVTTRLRENELTYYCCKKDLCNFNEQLENHHHHHH", 7.41),
]

Kindly indicate its recorded pKd. Item: Vector KRE sCD59-6xHis wild-type (protein) MGIQGGSVLFGLLLVLAVFCHSGHSLQCYNCPNPTADCKTAVNCSSDFDACLITKAGLQVYNKCWKFEHCNFNDVTTRLRENELTYYCCKKDLCNFNEQLENHHHHHH
7.46

Source: patent US20260297165
